# target-entity: 5-hydroxytryptamine receptor 7 (Homo sapiens)
# Sequence (P34969 whole entry): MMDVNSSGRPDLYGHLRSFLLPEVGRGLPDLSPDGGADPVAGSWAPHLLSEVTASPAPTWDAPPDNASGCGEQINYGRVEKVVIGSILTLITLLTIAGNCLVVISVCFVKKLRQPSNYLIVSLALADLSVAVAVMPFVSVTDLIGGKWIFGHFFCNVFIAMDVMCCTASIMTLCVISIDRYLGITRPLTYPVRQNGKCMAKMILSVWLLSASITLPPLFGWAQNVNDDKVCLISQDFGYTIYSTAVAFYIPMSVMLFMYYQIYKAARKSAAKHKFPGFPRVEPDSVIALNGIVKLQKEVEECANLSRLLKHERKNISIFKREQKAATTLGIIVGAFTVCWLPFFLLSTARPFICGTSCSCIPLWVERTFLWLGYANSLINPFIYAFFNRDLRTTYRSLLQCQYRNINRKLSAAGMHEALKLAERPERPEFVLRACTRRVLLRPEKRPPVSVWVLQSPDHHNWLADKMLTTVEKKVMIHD
property-name: Ki (nM)

1 = COc1ccc(-c2ccccc2N2CCN(CCOCCC(=O)NCc3cccnc3)CC2)cc1
2 = COc1ccc(-c2ccccc2N2CCN(CCCCCC(=O)NCc3cccnc3)CC2)cc1
*Q* Form: Entry with minimum Ki (choose one): 1 / 2 Field: selected label. Fill in the label of the entry you choose.
*A* 2

====

# target-entity: Adrenergic receptor alpha-1 (Rattus norvegicus, UniProt P15823+P23944+P43140)
# Sequence (P15823 whole entry): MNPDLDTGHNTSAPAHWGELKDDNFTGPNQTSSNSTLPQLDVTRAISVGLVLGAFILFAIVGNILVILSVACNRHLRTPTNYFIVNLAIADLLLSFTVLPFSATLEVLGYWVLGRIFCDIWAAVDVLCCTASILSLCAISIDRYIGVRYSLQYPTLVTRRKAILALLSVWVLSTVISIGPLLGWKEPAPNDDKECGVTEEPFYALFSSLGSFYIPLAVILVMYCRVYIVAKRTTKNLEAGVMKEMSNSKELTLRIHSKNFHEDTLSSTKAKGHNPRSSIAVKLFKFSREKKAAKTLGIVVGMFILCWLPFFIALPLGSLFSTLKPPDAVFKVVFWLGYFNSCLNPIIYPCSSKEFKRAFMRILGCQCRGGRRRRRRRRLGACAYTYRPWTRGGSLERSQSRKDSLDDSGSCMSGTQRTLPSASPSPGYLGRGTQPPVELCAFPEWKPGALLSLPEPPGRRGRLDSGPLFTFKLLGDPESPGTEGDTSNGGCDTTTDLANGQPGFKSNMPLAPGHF
# Sequence (P23944 whole entry): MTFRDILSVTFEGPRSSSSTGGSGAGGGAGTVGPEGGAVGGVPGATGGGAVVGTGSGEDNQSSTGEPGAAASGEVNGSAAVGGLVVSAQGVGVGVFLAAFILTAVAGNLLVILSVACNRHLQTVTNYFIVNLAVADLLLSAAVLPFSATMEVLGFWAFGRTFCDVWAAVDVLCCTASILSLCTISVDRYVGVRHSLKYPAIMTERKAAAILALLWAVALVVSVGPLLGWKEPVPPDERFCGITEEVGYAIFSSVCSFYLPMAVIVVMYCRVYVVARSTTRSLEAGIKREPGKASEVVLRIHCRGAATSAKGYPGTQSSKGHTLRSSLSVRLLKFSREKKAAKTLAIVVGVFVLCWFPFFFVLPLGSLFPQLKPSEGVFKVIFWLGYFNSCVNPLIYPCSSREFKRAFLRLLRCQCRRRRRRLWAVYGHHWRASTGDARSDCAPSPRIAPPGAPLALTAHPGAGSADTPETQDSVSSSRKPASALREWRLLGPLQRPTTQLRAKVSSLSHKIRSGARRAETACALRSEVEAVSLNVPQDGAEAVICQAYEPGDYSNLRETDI
# Sequence (P43140 whole entry): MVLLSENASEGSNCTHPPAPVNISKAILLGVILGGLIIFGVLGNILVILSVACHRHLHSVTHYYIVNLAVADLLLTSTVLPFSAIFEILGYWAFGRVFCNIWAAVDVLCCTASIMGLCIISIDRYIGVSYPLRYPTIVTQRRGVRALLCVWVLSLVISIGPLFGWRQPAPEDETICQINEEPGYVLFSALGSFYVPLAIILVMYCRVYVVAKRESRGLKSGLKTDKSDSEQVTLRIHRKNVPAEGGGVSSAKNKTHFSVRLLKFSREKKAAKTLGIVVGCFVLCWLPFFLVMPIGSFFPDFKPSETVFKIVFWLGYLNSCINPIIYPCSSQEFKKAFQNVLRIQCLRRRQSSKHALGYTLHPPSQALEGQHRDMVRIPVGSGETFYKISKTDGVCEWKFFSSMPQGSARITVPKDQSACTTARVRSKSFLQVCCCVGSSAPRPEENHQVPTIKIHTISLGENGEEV
# protocol-description: Displacement of [3H]-prazosin from alpha1 adrenergic receptor in rat cerebral cortex membranes after 50 mins
# Assay type: cell membranes, Membrane
property-name: Ki (µM)

COc1ccc(-c2ccccc2N2CCN(CCCCCC(=O)NCc3ccncc3)CC2)cc1 = 0.0305

P = COc1ccc(-c2ccccc2N2CCN(CCOCCC(=O)NCc3cccnc3)CC2)cc1
Q = COc1ccc(-c2ccccc2N2CCN(CCCCCC(=O)NCc3cccnc3)CC2)cc1
R = COc1ccc(-c2ccccc2N2CCN(CCCCCC(=O)NCc3ccccn3)CC2)cc1
S = COc1ccc(-c2ccccc2N2CCN(CCOCCC(=O)NCc3ccncc3)CC2)cc1
*Q* Hi! Can you put these in order of Ki, lowest number first? // ordering of labels required in reply
*A* R, Q, S, P

P = COc1ccc(-c2ccccc2N2CCN(CCOCCC(=O)NCc3ccccn3)CC2)cc1
Q = N#Cc1ccc(CNC(=O)CCCCCN2CCN(c3ccccc3-c3ccccc3)CC2)cc1
*Q* Between the entries labelled P and Q , which has a larger Ki value on record? Field: selected label. Fill in the label of the entry you choose.
*A* P
(P: 0.295 µM, Q: 0.0226 µM)
